- Tested system: CB2 (Homo sapiens)
- Construct: expressed in transfected cells; host or cells: CHO-K1 (membranes)
- Run description: Displacement of [3H]CP55940 in membranes of CHO-K1 cells over-expressing CB2
- Format: binding
- Measurement setup: Table 5; read-out: Ki (nM) v. [3H] CP55940 at CB2
Recorded metric: Ki (nM)

CCNC(=O)N1CCC(NC(=O)c2nn(-c3ccc(Cl)cc3Cl)c(-c3ccc(Cl)cc3)c2C)CC1 [NHC2H5] | 13200
Cc1c(C(=O)NC2CCN(C(=O)NC(C)C)CC2)nn(-c2ccc(Cl)cc2Cl)c1-c1ccc(Cl)cc1 [NH(isopropyl)] | 17200
CCOC(=O)N1CCC(NC(=O)c2nn(-c3ccc(Cl)cc3Cl)c(-c3ccc(Cl)cc3)c2C)CC1 [OC2H5] | 8070

----------
- Tested system: CB1 (Homo sapiens, UniProt P21554)
- Construct: expressed in transfected cells; host or cells: CHO-K1 (membranes)
- Sequence (P21554 whole entry): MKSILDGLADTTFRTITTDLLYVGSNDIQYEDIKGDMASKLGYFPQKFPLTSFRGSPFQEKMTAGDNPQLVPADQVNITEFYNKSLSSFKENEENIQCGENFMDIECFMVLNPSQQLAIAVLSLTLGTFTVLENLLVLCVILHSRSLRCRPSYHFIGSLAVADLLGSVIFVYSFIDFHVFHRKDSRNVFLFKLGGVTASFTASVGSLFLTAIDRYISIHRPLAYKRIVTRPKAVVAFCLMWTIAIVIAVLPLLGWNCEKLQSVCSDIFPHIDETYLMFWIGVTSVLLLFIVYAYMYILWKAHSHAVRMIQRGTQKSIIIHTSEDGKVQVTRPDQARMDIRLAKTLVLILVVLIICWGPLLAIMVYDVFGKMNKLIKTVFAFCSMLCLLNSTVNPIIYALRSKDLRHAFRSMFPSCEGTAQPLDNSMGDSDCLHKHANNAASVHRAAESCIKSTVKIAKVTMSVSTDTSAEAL
- Run description: Radioligand displacement of [3H]SR141716 at CB1
- Format: binding
- Measurement setup: Table 4; read-out: Ki (nM) v. [3H] SR141716 at CB1
Recorded metric: Ki (nM)

Known Ki results, listed for orientation:
Cc1c(C(=O)N2CCC(C(N)=O)(c3ccccc3)CC2)nn(-c2ccc(Cl)cc2Cl)c1-c1ccc(Cl)cc1 | 0.44
Cc1c(C(=O)N2CCC(O)(c3ccccc3)CC2)nn(-c2ccc(Cl)cc2Cl)c1-c1ccc(Cl)cc1 | 9.63
Cc1c(C(=O)N2CCC(NC(=O)NC(C)(C)C)(c3ccccc3)CC2)nn(-c2ccc(Cl)cc2Cl)c1-c1ccc(Cl)cc1 | 18.1
Cc1c(C(=O)N2CCC(O)(c3ccccc3)CC2)nn(-c2ccc(Cl)cc2Cl)c1-c1ccc(N(C)C)cc1 | 72.5
CC(=O)NC1(c2ccccc2)CCN(C(=O)c2nn(-c3ccc(Cl)cc3Cl)c(-c3ccc(Cl)cc3)c2C)CC1 | 13.7
Cc1c(C(=O)N2CCC(NS(C)(=O)=O)(c3ccccc3)CC2)nn(-c2ccc(Cl)cc2Cl)c1-c1ccc(Cl)cc1 | 3.28
Cc1c(C(=O)N2CCC(C(N)=O)(c3ccccc3)CC2)nn(-c2ccc(Cl)cc2Cl)c1-c1ccc(Br)cc1 | 2.67
Cc1c(C(=O)N2CCC(N)(c3ccccc3)CC2)nn(-c2ccc(Cl)cc2Cl)c1-c1ccc(Cl)cc1 | 30.5

(P) CCNC1(C(N)=O)CCN(C(=O)c2nn(-c3ccc(Cl)cc3Cl)c(-c3ccc(Cl)cc3)c2C)CC1
(Q) Cc1c(C(=O)N2CCC(NC(=O)OC(C)(C)C)(c3ccccc3)CC2)nn(-c2ccc(Cl)cc2Cl)c1-c1ccc(Cl)cc1
Input: Which numeric Ki is bigger, that of P or that of Q ? Lab note: record the label of whichever item you select.
Output: P
(P: 34.6 nM, Q: 6.02 nM)

----------
- Tested system: CB2 (Homo sapiens, UniProt P34972)
- Construct: expressed in transfected cells; host or cells: CHO-K1 (membranes)
- Sequence (P34972 whole entry): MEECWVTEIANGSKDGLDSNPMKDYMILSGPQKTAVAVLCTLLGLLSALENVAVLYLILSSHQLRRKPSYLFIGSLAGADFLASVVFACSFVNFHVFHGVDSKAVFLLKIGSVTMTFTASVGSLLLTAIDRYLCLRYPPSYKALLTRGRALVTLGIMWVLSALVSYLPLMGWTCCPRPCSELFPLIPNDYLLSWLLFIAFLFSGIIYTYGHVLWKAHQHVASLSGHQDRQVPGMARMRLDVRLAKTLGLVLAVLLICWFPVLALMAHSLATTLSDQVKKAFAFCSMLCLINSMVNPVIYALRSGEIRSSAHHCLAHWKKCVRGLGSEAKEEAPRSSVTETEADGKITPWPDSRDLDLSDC
- Run description: Displacement of [3H]CP55940 in membranes of CHO-K1 cells over-expressing CB2
- Format: binding
- Measurement setup: Table 4; read-out: Ki (nM) v. [3H] CP55940 at CB2
Recorded metric: Ki (nM)

Here's what some known entries look like.
CCCCNC(=O)NC1(c2ccccc2)CCN(C(=O)c2nn(-c3ccc(Cl)cc3Cl)c(-c3ccc(Cl)cc3)c2C)CC1 [Cl, phenyl, NHC(O)NHC4H9] | 2760
Cc1c(C(=O)N2CCC(O)(c3ccccc3)CC2)nn(-c2ccc(Cl)cc2Cl)c1-c1ccc(Cl)cc1 [Cl, phenyl, OH] | 831
CCNC(=O)NC1(c2ccccc2)CCN(C(=O)c2nn(-c3ccc(Cl)cc3Cl)c(-c3ccc(Cl)cc3)c2C)CC1 [Cl, phenyl, NHC(O)NHCH2CH3] | 182
CCNC1(C(N)=O)CCN(C(=O)c2nn(-c3ccc(Cl)cc3Cl)c(-c3ccc(Cl)cc3)c2C)CC1 [Cl, NHC2H5, C(O)NH2] | 2220
Cc1c(C(=O)N2CCC(NS(C)(=O)=O)(c3ccccc3)CC2)nn(-c2ccc(Cl)cc2Cl)c1-c1ccc(Cl)cc1 [Cl, phenyl, NHSO2CH3] | 41

(1) CCCNC(=O)NC1(c2ccccc2)CCN(C(=O)c2nn(-c3ccc(Cl)cc3Cl)c(-c3ccc(Cl)cc3)c2C)CC1 [Cl, phenyl, NHC(O)NHC3H7]
(2) Cc1c(C(=O)N2CCC(C(=O)NC(C)(C)C)(c3ccccc3)CC2)nn(-c2ccc(Cl)cc2Cl)c1-c1ccc(Cl)cc1 [Cl, phenyl, C(O)NH(t-butyl)]
Input: Which of the two gives a bigger number for Ki: 1 or 2 ? Answer by stating the label of the chosen item.
Output: 2
(2: 8390 nM, 1: 293 nM)

----------
- Tested system: CB2 (Homo sapiens, UniProt P34972)
- Construct: expressed in transfected cells; host or cells: CHO-K1 (membranes)
- Run description: Displacement of [3H]CP55940 in membranes of CHO-K1 cells over-expressing CB2
- Format: binding
- Measurement setup: Table 3; radioligand [3H]CP55940; read-out: Ki(μM) CB2 CP55940
Recorded metric: Ki (µM)

(I) Cc1c(C(=O)NCC2CCC(CNS(N)(=O)=O)CC2)nn(-c2ccc(Cl)cc2Cl)c1-c1ccc(Cl)cc1 (mixture of isomers)
(II) Cc1c(C(=O)NCC2CCC(CNS(C)(=O)=O)CC2)nn(-c2ccc(Cl)cc2Cl)c1-c1ccc(Cl)cc1 (mixture of isomers)
Input: In terms of reported Ki, does I or II have the smaller number? When you have decided, please share the label of that item.
Output: II

----------
- Tested system: CB1 (Homo sapiens)
- Construct: expressed in transfected cells; host or cells: CHO-K1 (membranes)
- Run description: Displacement of [3H]CP55940 in membranes of CHO-K1 cells over-expressing CB1
- Assay type: binding
- Measurement setup: Table 4; read-out: Ki (nM) v. [3H] CP55940 at CB1
Recorded metric: Ki (nM)

Cc1c(C(=O)N2CCC(NC(=O)NC3CCCCC3)(c3ccccc3)CC2)nn(-c2ccc(Cl)cc2Cl)c1-c1ccc(Cl)cc1 | 792

(1) CCCNC(=O)NC1(c2ccccc2)CCN(C(=O)c2nn(-c3ccc(Cl)cc3Cl)c(-c3ccc(Cl)cc3)c2C)CC1
(2) Cc1c(C(=O)N2CCC(C(=O)NC(C)(C)C)(c3ccccc3)CC2)nn(-c2ccc(Cl)cc2Cl)c1-c1ccc(Cl)cc1
(3) Cc1c(C(=O)N2CCC(N)(c3ccccc3)CC2)nn(-c2ccc(Cl)cc2Cl)c1-c1ccc(Cl)cc1
Input: Put these in order: smallest Ki first, largest last. Answer by listing the labels in the order asked for.
Output: 1, 2, 3
(1: 7.57 nM, 2: 19.9 nM, 3: 104 nM)

----------
- Tested system: CB1 (Homo sapiens)
- Construct: expressed in transfected cells; host or cells: CHO-K1 (membranes)
- Run description: CB1 activated Gαq16-coupled intracellular calcium mobilization assay in CHO-K1 cells (apparent affinity Ke)
- Assay type: cell-based
- Measurement setup: Table 2; calcium mobilization, apparent affinity; read-out: Ke CB1
Recorded metric: Kb (nM)

Completed entries (count: 5):
Cc1c(C(=O)NCCCN(C)CCCNS(C)(=O)=O)nn(-c2ccc(Cl)cc2Cl)c1-c1ccc(Cl)cc1 | 5340
Cc1c(C(=O)NCc2ccc(CNS(C)(=O)=O)cc2)nn(-c2ccc(Cl)cc2Cl)c1-c1ccc(Cl)cc1 | 2930
Cc1c(C(=O)NCCCCCCCNS(N)(=O)=O)nn(-c2ccc(Cl)cc2Cl)c1-c1ccc(Cl)cc1 | 304
Cc1c(C(=O)NCc2cccc(CNS(C)(=O)=O)c2)nn(-c2ccc(Cl)cc2Cl)c1-c1ccc(Cl)cc1 | 2830
Cc1c(C(=O)N[C@H]2CC[C@H](NS(N)(=O)=O)CC2)nn(-c2ccc(Cl)cc2Cl)c1-c1ccc(Cl)cc1 | 9430

(I) Cc1c(C(=O)NCc2cccc(CNS(N)(=O)=O)c2)nn(-c2ccc(Cl)cc2Cl)c1-c1ccc(Cl)cc1
(II) Cc1c(C(=O)NCc2ccc(CNS(N)(=O)=O)cc2)nn(-c2ccc(Cl)cc2Cl)c1-c1ccc(Cl)cc1
Input: Between the entries labeled I and II , whose measured Kb is lower? Lab log: write the label of the selected item as the result.
Output: II
(II: 376 nM, I: 4200 nM)

----------
Recorded % MDCK-MDR transport (apical to basal) by entry
- Tested on: MDCK-MDR
- Run description: MDCK-MDR transport (apical to basal)
- Type: in vitro ADME
- Measurement setup: Table 4

Cc1c(C(=O)N2CCC(NC(=O)NC(C)C)(c3ccccc3)CC2)nn(-c2ccc(Cl)cc2Cl)c1-c1ccc(Cl)cc1 | <1%

Input: Data request, read-out % MDCK-MDR transport (apical to basal), for Cc1c(C(=O)N2CCC(NC(=O)NC(C)(C)C)(c3ccccc3)CC2)nn(-c2ccc(Cl)cc2Cl)c1-c1ccc(Cl)cc1
Output: <1%
